read-out: Interleukin-6 (IL6), IL6 (gene 3569); experiment: BSK_CASM3C_IL6: BioMAP Diversity Plus: CASM3C Assay for Interleukin-6 (IL6) Biomarker Activity for (AID 2283040); settings: primary human coronary artery smooth muscle cells; actives raise or lower the signal
Active and inactive are the calls of the source. Rule for the calls: active = hit-call score of the fitted dose curve at least 0.9, where 1 is the maximum; inactive = score below 0.9.
Returns: one label drawn from Y (active), N (inactive)

CCOc1cc(C(C)(C)C)ccc1C1COC(c2c(F)cccc2F)=N1 (configuration not stated)
N
O=C(O)c1c(Cl)ccc2cc(Cl)cnc12
N
CCCCC(O)(Cn1cncn1)c1ccc(Cl)cc1Cl (configuration not stated)
N
CCC(C)n1c(=O)[nH]c(C)c(Br)c1=O (configuration not stated)
N
Nc1c(Cl)c(F)nc(OCC(=O)O)c1Cl
N
COP(=S)(OC)SCn1nnc2ccccc2c1=O
N

Here is the next item to consider.
Entry `OC(c1ccc(Cl)cc1)(c1ccc(Cl)cc1)C(Cl)(Cl)Cl` : call = ? N

----------
molecular target: AR (gene 367) (UniProt P10275); assay: ACEA_AR_antagonist_80hr: ACEA Biosciences xCELLigence Real-Time Cell Analysis on Androgen Receptor Antagonism for Proliferation (AID 2283787);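 note: 22Rv1 human prostate cancer cells with growth followed by electrical impedance; hits lower the impedance growth signal relative to DMSO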
Sequence (P10275 whole entry, looked up): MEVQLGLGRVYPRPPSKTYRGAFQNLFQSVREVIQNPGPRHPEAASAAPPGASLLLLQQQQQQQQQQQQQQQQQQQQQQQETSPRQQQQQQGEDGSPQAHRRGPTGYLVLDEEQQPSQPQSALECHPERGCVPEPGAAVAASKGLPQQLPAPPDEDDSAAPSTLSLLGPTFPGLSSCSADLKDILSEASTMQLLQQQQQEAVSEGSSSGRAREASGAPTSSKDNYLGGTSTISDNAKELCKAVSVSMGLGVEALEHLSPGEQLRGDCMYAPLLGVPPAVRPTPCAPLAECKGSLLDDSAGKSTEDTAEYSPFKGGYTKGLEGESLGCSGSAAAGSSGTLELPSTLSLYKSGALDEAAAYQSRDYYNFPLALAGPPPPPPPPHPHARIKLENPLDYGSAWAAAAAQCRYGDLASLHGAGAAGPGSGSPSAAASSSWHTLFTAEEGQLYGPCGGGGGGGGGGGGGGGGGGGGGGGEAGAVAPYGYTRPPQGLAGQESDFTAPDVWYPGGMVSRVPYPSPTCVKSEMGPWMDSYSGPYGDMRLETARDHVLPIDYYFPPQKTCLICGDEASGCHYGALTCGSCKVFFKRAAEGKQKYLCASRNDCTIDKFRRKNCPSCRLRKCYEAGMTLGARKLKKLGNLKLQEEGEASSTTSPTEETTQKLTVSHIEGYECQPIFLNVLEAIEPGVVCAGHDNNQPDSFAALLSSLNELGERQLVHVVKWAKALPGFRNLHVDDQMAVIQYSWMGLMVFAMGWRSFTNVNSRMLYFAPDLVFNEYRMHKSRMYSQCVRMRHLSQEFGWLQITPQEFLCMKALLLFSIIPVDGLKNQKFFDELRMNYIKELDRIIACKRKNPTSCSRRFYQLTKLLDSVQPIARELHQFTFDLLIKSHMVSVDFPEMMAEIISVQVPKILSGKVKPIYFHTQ
Results filed as inconclusive are left out. The source made the active and inactive calls. How the source made its calls: active means hit-call score of the fitted dose curve at least 0.9, where 1 is the maximum; inconclusive means response in the unintended direction; inactive means score below 0.9.
Returns: one label drawn from active, inactive

Solved entries (count: 3):
Cc1cnc(C2=NC(C)(C(C)C)C(=O)N2)c(C(=O)O)c1 (stereo not drawn)
inactive
CCOP(=O)(OCC)Oc1nc(Cl)c(Cl)cc1Cl
active
COC(=O)N(C(=O)N1CO[C@@]2(C(=O)OC)Cc3cc(Cl)ccc3C2=N1)c1ccc(OC(F)(F)F)cc1
active

Entry `CCCCOCN(C(=O)CCl)c1c(CC)cccc1CC` : call = ? active

Entry `COP(=S)(OC)SCn1nnc2ccccc2c1=O` : call = ? active

Entry `COC(=O)c1c(C(F)F)nc(C(F)(F)F)c(C2=NCCS2)c1CC(C)C` : call = ? inactive

Entry CCOc1cc(C(C)(C)C)ccc1C1COC(c2c(F)cccc2F)=N1 (stereo not drawn) : call = ? active

Entry `COc1ccc(-c2ccccc2)cc1NNC(=O)OC(C)C` : call = ? inactive

----------
assay: BSK_3C_Vis: BioMAP Diversity Plus: 3C Assay for Morphology Visualization (AID 2283025); details: primary human endothelial cells (HUVEC);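 note: fitted both ways so gain or loss versus DMSO counts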
Activity calls are given as the source filed them. Rule for the calls: active = hit-call score of the fitted dose curve at least 0.9, where 1 is the maximum; inactive = score below 0.9.
Returns: one label drawn from active, inactive

Entry `Clc1nc(Cl)nc(Nc2ccccc2Cl)n1` : call = ? inactive

Entry `CCNC(=O)NC(=O)C(C#N)=NOC` : call = ? inactive

Entry `CNC(=O)Oc1cccc2ccccc12` : call = ? active

----------
biological target: Nuclear receptor subfamily 1 group I member 2 (Mus musculus) (UniProt O54915); test: ATG_mPXR_XSP1: Attagene TRANS-FACTORIAL Multi-Species (XSP1) HepG2 Assay for mouse Pregnane X Receptor (PXR) (AID 2283803)
Sequence (O54915 whole entry, looked up): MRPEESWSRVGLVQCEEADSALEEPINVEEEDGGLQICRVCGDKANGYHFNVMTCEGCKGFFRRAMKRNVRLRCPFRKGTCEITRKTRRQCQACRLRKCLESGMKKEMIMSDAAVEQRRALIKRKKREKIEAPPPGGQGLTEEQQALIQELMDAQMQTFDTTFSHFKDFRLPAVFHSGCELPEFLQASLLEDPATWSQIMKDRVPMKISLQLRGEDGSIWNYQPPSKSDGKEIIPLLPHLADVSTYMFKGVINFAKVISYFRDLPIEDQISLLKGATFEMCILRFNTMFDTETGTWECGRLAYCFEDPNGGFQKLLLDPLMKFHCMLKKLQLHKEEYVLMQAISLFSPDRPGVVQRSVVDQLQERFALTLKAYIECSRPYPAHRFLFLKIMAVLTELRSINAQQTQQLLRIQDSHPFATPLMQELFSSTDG
Results filed as inconclusive are left out. The source made the active and inactive calls. Rule for the calls: active = hit-call score of the fitted dose curve at least 0.9, where 1 is the maximum; inconclusive = response in the unintended direction; inactive = score below 0.9.
OBSERVATION_TYPE: AC50

Example cases with answers are listed next.
COP(=S)(OC)Oc1ccc([N+](=O)[O-])c(C)c1
27.4 µM (active)
CC(C)NC(=O)N1CC(=O)N(c2cc(Cl)cc(Cl)c2)C1=O
12 µM (active)
CCN(CC)C(=O)C(C)Oc1cccc2ccccc12 (stereo not given)
1.27 µM (active)
CSC(=O)c1c(C(F)F)nc(C(F)(F)F)c(C(=O)SC)c1CC(C)C
0.139 µM (active)

For the compound CC1(C)C(C=C(Cl)Cl)C1C(=O)OC(C#N)c1cccc(Oc2ccccc2)c1 (stereo not given) , what AC50 is on record? 0.579 µM (active)

----------
read-out: Interleukin 6 Receptor (IL6R), IL6R (gene 3570); assay: LTEA_HepaRG_IL6R: Life Technologies and Expression Analysis (LTEA) Assay for Interleukin 6 Receptor (IL6R) using HepaRG (AID 2283510); details: mRNA level, 48 h; actives raise or lower the signal
Activity calls are given as the source filed them. The calls were made as follows: active = hit-call score of the fitted dose curve at least 0.9, where 1 is the maximum; inactive = score below 0.9.
Returns: one label drawn from 1 = active, 0 = inactive

Entry `CC(C)N1C(=O)c2ccccc2NS1(=O)=O` : call = ? 0

Entry `N#CN=C1SCCN1Cc1ccc(Cl)nc1` : call = ? 0

Entry `CNC(=O)N(C)c1nnc(C(C)(C)C)s1` : call = ? 0

----------
read-out: serum amyloid A (SAA), SAA1 (gene 6288); assay: BSK_CASM3C_SAA: BioMAP Diversity Plus: CASM3C Assay for serum amyloid A (SAA) Biomarker Activity (AID 2283049); settings: primary human coronary artery smooth muscle cells; actives raise or lower the signal;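 note: SAA protein level quantified by ELISA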
The source made the active and inactive calls. The calls were made as follows: active = hit-call score of the fitted dose curve at least 0.9, where 1 is the maximum; inactive = score below 0.9.
OBSERVATION_TYPE: outcome

CCSC(=O)N1CCCCCC1
inactive
CCCC(=NOCC)C1=C(O)CC(CC(C)SCC)CC1=O (configuration not stated)
inactive
CCCCC(C#N)(Cn1cncn1)c1ccc(Cl)cc1 (configuration not stated)
inactive
CNC(=O)Oc1cccc2ccccc12
inactive
CC(C)NC(=O)N1CC(=O)N(c2cc(Cl)cc(Cl)c2)C1=O
inactive
C=C(C)CN(CC)c1c([N+](=O)[O-])cc(C(F)(F)F)cc1[N+](=O)[O-]
inactive

As a next step, examine the compound that follows.
For the compound `COP(=O)(OC)O/C(C)=C/C(=O)N(C)C` , what outcome is on record? inactive

----------
experiment: CCTE_Mundy_HCI_Cortical_Synap_Neur_Matur_SynapseCount: CCTE's Synaptogenesis and Neurite Maturation Assay in rat cortical cells for Synapse Count, Mundy Lab (AID 2284218)
The source made the active and inactive calls. Rule for the calls: active = hit-call score of the fitted dose curve at least 0.9, where 1 is the maximum; inactive = score below 0.9.
Returns: one label drawn from Y for active, N for inactive

Solved entries (count: 3):
C=C(C)CN(CC)c1c([N+](=O)[O-])cc(C(F)(F)F)cc1[N+](=O)[O-]
Y
COP(=S)(OC)SCn1nnc2ccccc2c1=O
N
CCN(CC)c1nc(C)cc(OP(=S)(OC)OC)n1
N

Entry `CCOP(=O)(OCC)Oc1nc(Cl)c(Cl)cc1Cl` : call = ? N

Entry `CN/C(=N\[N+](=O)[O-])NCc1cnc(Cl)s1` : call = ? N

Entry CC(C)(C)C(=O)C(Oc1ccc(Cl)cc1)n1cncn1 (stereo not given) : call = ? Y

Entry `COC(=O)N(C(=O)N1CO[C@@]2(C(=O)OC)Cc3cc(Cl)ccc3C2=N1)c1ccc(OC(F)(F)F)cc1` : call = ? N

Entry `CCNC(=O)NC(=O)C(C#N)=NOC` : call = ? Y

Entry `Cc1c(COC(=O)[C@@H]2[C@H](/C=C(\Cl)C(F)(F)F)C2(C)C)cccc1-c1ccccc1` : call = ? Y

Entry CC1(C)C(C=C(Cl)Cl)C1C(=O)OC(C#N)c1cccc(Oc2ccccc2)c1 (stereo not given) : call = ? N

----------
read-out: HGF (gene 3082); test: LTEA_HepaRG_HGF: Life Technologies and Expression Analysis (LTEA) Assay for Hepatocyte Growth Facto (HGF) using HepaRG (AID 2283505); details: mRNA level, 48 h; actives raise or lower the signal
Calls of active or inactive are those of the source. How the source made its calls: active means hit-call score of the fitted dose curve at least 0.9, where 1 is the maximum; inactive means score below 0.9.
Returns: one label drawn from yes for active, no for inactive

Solved entries (count: 10):
CCC(C)n1c(=O)[nH]c(C)c(Br)c1=O (stereo unspecified)
no
CC(C)Oc1cccc(NC(=O)c2ccccc2C(F)(F)F)c1
no
Cc1c(COC(=O)[C@@H]2[C@H](/C=C(\Cl)C(F)(F)F)C2(C)C)cccc1-c1ccccc1
no
COP(=O)(OC)O/C(C)=C/C(=O)N(C)C
no
CC(C)N1C(=O)c2ccccc2NS1(=O)=O
no
COc1cc(OC)nc(NC(=O)NS(=O)(=O)c2ncccc2OCC(F)(F)F)n1
no
CCN(CC)c1nc(C)cc(OP(=S)(OC)OC)n1
no
CC1(C)C(C=C(Cl)Cl)C1C(=O)OC(C#N)c1cccc(Oc2ccccc2)c1 (stereo unspecified)
no
CC(C)N1C(=O)N(c2ccccc2)CSC1=NC(C)(C)C
no
CC1(C)CCC(=Cc2ccc(Cl)cc2)C1(O)Cn1cncn1 (stereo unspecified)
no

Entry `CCNC(=O)NC(=O)C(C#N)=NOC` : call = ? no

Entry `Cc1cc(C)nc(Nc2ccccc2)n1` : call = ? no

Entry `CCOc1nc(C(Cl)(Cl)Cl)ns1` : call = ? yes

Entry CC(C)(C)C(=O)C(Oc1ccc(Cl)cc1)n1cncn1 (stereo unspecified) : call = ? no

Entry `CC(C)Nc1nc(Cl)nc(NC(C)C)n1` : call = ? no

Entry `Clc1nc(Cl)nc(Nc2ccccc2Cl)n1` : call = ? no

----------
Assay: CCTE_Shafer_MEA_dev_burst_duration_mean: CCTE's Neural Network Formation Assay for Mean Burst Duration, Shafer Lab (AID 2284045)
Method: CCTE_Shafer_MEA_dev assay is conducted using Axion Biosystems 48 well microelectrode array (MEA) plates and Maestro recording system. Each well of the MEA plate contains a grid of 16 microelectrodes embedded in the culture surface. Electrically active cells, such as neurons, can be cultured over the electrodes, and electrical activity in these cells can be recorded extracellularly. […]
The source made the active and inactive calls. The calls were made as follows: active = hit-call score of the fitted dose curve at least 0.9, where 1 is the maximum; inactive = score below 0.9.
Returns: one label drawn from y = active, n = inactive

CCSC(=O)N1CCCCCC1
n

Entry `CNC(=O)Oc1cccc2ccccc12` : call = ? n

Entry `COP(=O)(OC)O/C(C)=C/C(=O)N(C)C` : call = ? n

Entry `O=C(Nc1ccccc1-c1ccc(Cl)cc1)c1cccnc1Cl` : call = ? n
